These measurements were taken from patent US11415579B2.

molecular target: Cdk2(S181C) (C177A) (Homo sapiens, UniProt P24941, C177A/S181C); construct: poly-histidine; made in house; host or cells: E. coli; assay: Kinetic thiol consumption assay with Cdk2 mutant S181C; format: binding; conditions: Protein: Cdk2; cysteine position S181C; additional mutation C177A; in h^-1
observable: Rate constant with Cdk2 S181C

These solved cases illustrate the format of a correct answer.
| compound | Rate constant with Cdk2 S181C |
| --- | --- |
| C=CC(=O)N1CCC(NC(=O)C2CCC2)C1 (stereo not shown) | 0.003708 |
| C=CC(=O)N(CC(=O)NC1CC1)C1CC1 | 0.009769 |
| FC(F)(F)c1cc(Cl)ncc1Br | 0.001089 |
| C=CC(=O)N1CC2CCN(Cc3ccccc3)C2C1 (stereo not shown) | 0.003565 |
| C=CC(=O)Nc1ccc(C(=O)NC2CCCC2)cc1 | 0.01188 |
| C=CC(=O)N1CCn2c(C(=O)NC3CC3)ccc2C1C (stereo not shown) | 0.01059 |
| C=CC(=O)N(C(=O)C=C)c1c2ccccc2n2c(C)nc3ccccc3c12 | 7.297 |
| C=CC(=O)NC(C)c1cccc(N2CCOCC2)c1 (stereo not shown) | 0.002097 |

Provide Rate constant with Cdk2 S181C values for the following items, in order.
1. C=CC(=O)N1CCCc2sccc2C1
2. C=CC(=O)N(C)C1CC(OCC)C12CCC2 (stereo not shown)
3. C=CC(=O)NC1(C(N)=O)CCCCC1
4. C=CC(=O)N1CCc2sccc2C1c1cccs1 (stereo not shown)
5. C=CC(=O)Nc1ccccc1C(=O)c1ccccc1

Outgoing:
1. 0.01082
2. 0.0114
3. 0.002313
4. 0.03604
5. 0.01697

----------
biological target: Cdk2(C177A, F80C) (Homo sapiens, UniProt P24941, C177A/F80C); construct: poly-histidine; made in house; host or cells: E. coli; test: Kinetic thiol consumption assay with Cdk2 mutant F80C, incl. kobs versus concentration (Kd, k2); assay type: binding; design: key: Cdk2 rate constant divided by model-thiol rate constant; conditions: Cdk2 F80C, additional mutation C177A
observable: Rate enhancement, Cdk2 F80C

| compound | targetOrTestSystem | Rate enhancement, Cdk2 F80C |
| --- | --- | --- |
| C=CC(=O)NCCc1c(-c2ccccn2)[nH]c2ccccc12 | Cdk2(C177A, F80C) (Homo sapiens, UniProt P24941, C177A/F80C) | 0 |
| C=CC(=O)Nc1sc2c(c1C(=O)NC1CC1)CCC2 | Cdk2(C177A, F80C) (Homo sapiens, UniProt P24941, C177A/F80C) | 0 |
| C=CC(=O)NCc1ccccc1 | Cdk2(C177A, F80C) (Homo sapiens, UniProt P24941, C177A/F80C) | 0.5029 |
| C=CC(=O)N1CCCC(C(=O)OCC)C1 (stereo not drawn) | Cdk2(C177A, F80C) (Homo sapiens, UniProt P24941, C177A/F80C) | 0.4424 |
| C=CC(=O)N(Cc1ccco1)Cc1ccco1 | Cdk2(C177A, F80C) (Homo sapiens, UniProt P24941, C177A/F80C) | 0.1651 |
| C=CC(=O)N1CCCC1c1cnc2ccccc2c1 (stereo not drawn) | Cdk2(C177A, F80C) (Homo sapiens, UniProt P24941, C177A/F80C) | 1.645 |

Provide Rate enhancement, Cdk2 F80C values for the following items, in order.
1. C=CC(=O)NCCNC(=O)c1ccccc1
2. N#Cc1ccncn1
3. C=CC(=O)Nc1ccc(C23CC4CC(CC(O)(C4)C2)C3)cc1

Outgoing:
[18.66, 0.9144, 0.9911]

----------
Exercise: state measured Rate constant with Cdk2 S181C for each of the compounds provided.
biological target: Cdk2(S181C) (C177A) (Homo sapiens, UniProt P24941, C177A/S181C); construct: poly-histidine; made in house; host or cells: E. coli; assay: Kinetic thiol consumption assay with Cdk2 mutant S181C; format: binding; settings: Protein: Cdk2; cysteine position S181C; additional mutation C177A; in h^-1
Answers are plain numbers.

These solved cases illustrate the format of a correct answer.
| compound | quantitativeResult |
| --- | --- |
| C=CC(=O)N(Cc1ccco1)Cc1cc2cc(C)ccc2o1 | 0.1409 |
| C=CC(=O)N1CCCCCC1c1cccs1 (stereo not drawn) | 0.005297 |
| C=CC(=O)N(CCCN1CCOCC1)Cc1ccncc1 | 0.00198 |

Provide Rate constant with Cdk2 S181C values for the following items, in order.
1. Cn1cc(S(=O)(=O)N2CCOCC2)cc1C(=O)NC(=O)CCl
2. C=CC(=O)N1CCN(c2cccc3cccnc23)CC1
3. C=CC(=O)N(C1CC1)C1CCCCC1C1CCCCC1 (stereo not drawn)
4. C=CC(=O)Nc1cccc2ncccc12
5. C=CC(=O)N(Cc1ccco1)Cc1ccco1
6. C=CC(=O)Nc1ccc2c(c1)OC1(CCCC1)O2
7. C=CC(=O)N(CC(=O)N1CCCC1)CC1CCCO1 (stereo not drawn)

Outgoing:
[0.001495, 0.01759, 0.02322, 0.1301, 0.314, 0.002032, 0.001658]

Provide Rate constant with Cdk2 S181C values for the following items, in order.
1. C=CC(=O)NCCN1CCOCC1
2. C=CC(=O)NC(C)c1ccc2c(c1)OCO2 (stereo not drawn)
3. C=CC(=O)N1CCOC2(CCCCC2)C1
4. C=CC(=O)Nc1cccc(C(F)(F)F)c1 [BN-80]
5. C=CC(=O)NCc1ccc(-c2csnn2)cc1
6. C=CC(=O)N1CCN(C(=O)OC(C)(C)C)c2ccccc21

Outgoing:
0.001084
0.002912
0.01137
0.0138
0.001268
0.01381

----------
biological target: human cyclin-dependent kinase 2 (Cdk2) (Homo sapiens, UniProt P24941); construct: poly-histidine; made in house; host or cells: E. coli; experiment: Kinetic thiol consumption assay with wild type Cdk2 (C177); type: binding; set-up: unit not given here; details: 500 μM ligand, 5 μM thiol, phosphate buffer pH 8
Yes if Rate constant with Cdk2 (k(Cdk2)) is below 0.004. No if not; exact matches included in No.

Sample answers from the record:
| compound | assignedCategory |
| --- | --- |
| C=CC(=O)N1CCC2(CCCCCC2)C1 | Yes |
| C=CC(=O)N(Cc1ccco1)Cc1cc2cc(C)ccc2o1 | No |
| C=CC(=O)NCc1ccc(-c2csnn2)cc1 | Yes |
| C=CC(=O)NCc1ccc(OC)cc1 | Yes |
| C=CC(=O)Nc1cccc(-c2cc3ccccc3[nH]2)c1 | No |

Incoming: Is the reported Rate constant with Cdk2 (k(Cdk2)) for C=CC(=O)N1CCC2(CC1)NC(=O)N(C)C2=O strictly below 0.004?
Outgoing: Yes

Incoming: Is the reported Rate constant with Cdk2 (k(Cdk2)) for C=CC(=O)N1CCN(Cc2ccc(Cl)cc2)CC1 strictly below 0.004?
Outgoing: Yes

Incoming: Is the reported Rate constant with Cdk2 (k(Cdk2)) for C=CC(=O)NC1c2ccccc2Oc2ccccc21 strictly below 0.004?
Outgoing: No

----------
target: Cdk2(S181C) (C177A) (Homo sapiens, UniProt P24941, C177A/S181C); construct: poly-histidine; made in house; host or cells: E. coli; test: Kinetic thiol consumption assay with Cdk2 mutant S181C; type: binding; parameters: key: rate constant with Cdk2 ÷ rate constant with model thiol (fold); details: Cdk2 S181C, additional mutation C177A
1 (yes) if Rate enhancement, Cdk2 S181C is below 0.5. 0 (no) if not; exact matches included in 0 (no).

Sample answers from the record:
| compound | assignedCategory |
| --- | --- |
| C=CC(=O)N1CCc2cc(-c3cccc(F)c3)ccc21 | 1 (yes) |
| C=CC(=O)N1CC(OCc2cccc3ccccc23)C1 | 0 (no) |
| C=CC(=O)NCC1CCCN1S(=O)(=O)c1ccc(C)cc1 (centres unmarked) | 0 (no) |

Incoming: Is the reported Rate enhancement, Cdk2 S181C for C=CC(=O)NC1(C2CC2)CC1 strictly below 0.5?
Outgoing: 1 (yes)

Incoming: Is the reported Rate enhancement, Cdk2 S181C for C=CC(=O)N1CCN(c2cccc3cccnc23)CC1 strictly below 0.5?
Outgoing: 0 (no)

Incoming: Is the reported Rate enhancement, Cdk2 S181C for C=CC(=O)NCc1ccc(OC)cc1 strictly below 0.5?
Outgoing: 1 (yes)

----------
Target: Cdk2(H71C) (C177A) (Homo sapiens, UniProt P24941, C177A/H71C)
Construct: poly-histidine; made in house; host or cells: E. coli
Experiment: Kinetic thiol consumption assay with Cdk2 mutant H71C
Format: binding
Design: key: rate constant with Cdk2 ÷ rate constant with model thiol (fold)
Details: Cdk2 H71C, additional mutation C177A
Procedure: To wells containing 150 μL thiol (Cdk2 or model thiol) (5 μM) in degassed phosphate buffer (pH 8) was added immobilized TCEP beads (2% v/v). After incubation of the fluorescence plates for 1 hour at room temperature, fluorescence measurements (excitation/emission of 380/470 nm) were taken on a PerkinElmer EnVision multilabel plate reader and processed with EnVision Workstation version 1.12. Fluorescence measurements were normalized against a DMSO/thiol only control and plotted against time. […]
Exercise: state measured Rate enhancement, Cdk2 H71C for each of the compounds provided.
Numbers only.

These solved cases illustrate the format of a correct answer.
| compound | Rate enhancement, Cdk2 H71C |
| --- | --- |
| C=CC(=O)N1CCC2(CCCN(Cc3ccccc3)C2)C1 (stereo not drawn) [CA-141] | 0 |
| C=CC(=O)N1CCN(c2cc(N3CCOCC3)ncn2)CC1 [CA-179] | 1.062 |
| C=CC(=O)Nc1ccccc1-c1ccccc1 [EL-1012] | 0.3662 |
| C=CC(=O)NC1CC2CC1C1CCCC21 (stereo not drawn) [CA-159] | 0.5333 |
| C=CC(=O)N1CCN(C(=O)OCC)CC1c1cccs1 (stereo not drawn) [EL-1121] | 1.52 |

Shift focus to the following entry.
Incoming: Quick one: give measured Rate enhancement, Cdk2 H71C for C=CC(=O)N1CCCCCC1c1cccnc1 (stereo not drawn) [EL-1059]
Outgoing: 0.3667
